- assay target: Ephrin type-B receptor 4 (Homo sapiens);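 note: reported value is the mean percent inhibition of EPHB4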
- experimental parameters: at 1 µM
Please provide measured inhibition for the entries that follow.
Express it in %; write the number only.

Briefly, inhibition measured for "O=C(O[C@H]1CN[C@H](C#Cc2cc3ncnc(Nc4ccc(Cc5ccccc5)cc4)c3s2)C1)N1CCOCC1" : 1.41

Briefly, inhibition measured for "CCn1c(-c2nonc2N)nc2c(C#CC(C)(C)O)ncc(OC3CCNCC3)c21" : 1.63

Briefly, inhibition measured for "CC(=O)NCc1cccc(C#Cc2cncnc2Nc2ccc(OCc3cccc(F)c3)c(Cl)c2)c1" : 2.91

Briefly, inhibition measured for "Cc1cccc(Nc2ncc(-c3ccccc3)o2)c1" : 3.6

Briefly, inhibition measured for "Fc1ccc(-c2nn3ncccc3c2-c2ccnc(Nc3ccc4c(c3)OCCO4)n2)cc1" : 64.8

Briefly, inhibition measured for "CCn1c(-c2nonc2N)nc2cnc(Oc3cccc(NC(=O)c4ccc(N(C)C)cc4)c3)cc21" : 0.71

Briefly, inhibition measured for "CCN1CCC(CC(=O)Nc2n[nH]c3nnc(-c4cccc(F)c4F)cc23)CC1" : 1.27

Briefly, inhibition measured for "Nc1ncc(-c2cccc(S(N)(=O)=O)c2)c2scc(-c3ccc(F)c(Cl)c3)c12" : 87.1

Briefly, inhibition measured for "Cc1ccc2c(-c3ccnc(Nc4ccccc4)n3)c(-c3ccc(F)cc3)nn2n1" : 56.9

Briefly, inhibition measured for "Clc1ccc(-c2nn3ncccc3c2-c2ccnc(Nc3ccccc3)n2)cc1" : 37.2

Briefly, inhibition measured for "COC(=O)c1sc(-n2cnc3cc(OC)c(OC)cc32)cc1OCc1ccccc1C(F)(F)F" : 3.16

Briefly, inhibition measured for "CCOc1ccc2c(-c3ccnc(Nc4cccc(C(F)(F)F)c4)n3)cnn2n1" : 2.81

Briefly, inhibition measured for "CCc1nn2ncccc2c1-c1ccnc(NC2CC2)n1" : 3.43

Briefly, inhibition measured for "Fc1ccc(-c2cc(-c3c[nH]nc3-c3ccccn3)ccn2)cc1" : 0.96

Briefly, inhibition measured for "Fc1ccc(-c2nn3ccccc3c2-c2ccncc2)cc1" : 4.73

Briefly, inhibition measured for "c1ccc(-c2nc3n(c2-c2ccc4c(c2)OCO4)CCC3)nc1" : 1.11

The values you see were collected from ChEMBL document CHEMBL1961873.
